# target system: pTyr-containing peptide (pEZ) derived from Ezrin, PPV{pTyr}EPVS
# assay remarks: fluorescence polarization, purified SH2 domain with fluorescein-labelled ezrin phosphopeptide
Recorded IC50 by entry
measurement type: IC50

binder: sFes^1 (SuperFes), superbinder Fes SH2 domain variant (designed binder) MKIEEHHHHHHSSGKLGLNDIFEAQKIEWHESSGEDLYFQSGTTMDDYKDDDDKGGSEVQKPLHEQLWYHGAIPRAEVAELLVHSGDFLVREGQSQPDYVLSVLWDGLPRHFIIQSLDNLYRLEGEGFPSIPLLIDHLLSTQQPLTKKSGVVLHRAVPSR
result: 2.7 nM
--
binder: sFes^5, superbinder Fes SH2 domain variant (designed binder) MKIEEHHHHHHSSGKLGLNDIFEAQKIEWHESSGEDLYFQSGTTMDDYKDDDDKGGSEVQKPLHEQLWYHGAIPRAEVAELLVHSGDFLVRESISKQGYVLSVLWDGLPRHFLIQSLDNLYRLEGEGFPSIPLLIDHLLSTQQPLTKKSGVVLHRAVPSR
result: 39.7 nM
--
binder: sFes^4, superbinder Fes SH2 domain variant (designed binder) MKIEEHHHHHHSSGKLGLNDIFEAQKIEWHESSGEDLYFQSGTTMDDYKDDDDKGGSEVQKPLHEQLWYHGAIPRAEVAELLVHSGDFLVRESQGRKVYVLSVLWDGLPRHFIIQSLDNLYRLEGEGFPSIPLLIDHLLSTQQPLTKKSGVVLHRAVPSR
result: 17.4 nM
